- assayComment: Concentration required to inhibit cell growth 50% was determined in HL60R cell lines
- Type: functional, cell-based, Homo sapiens
- conditions: Homo sapiens, HL60R
propertyMeasured: IC50 (nM)
Answer in nM, number only, no unit symbol.

IC50 reading for COC1=NO[C@@H](c2ccc(OC)c(O)c2)[C@H]1c1cc(OC)c(OC)c(OC)c1 : 250

====

- assayComment: Therapeutic index (IC90/percentage of CFUGEMM inhibition) value after 14 days for bone marrow cells treated with compound at IC90
- Type: cell-based
- conditions: human, 336 h
propertyMeasured: Ratio

Worked examples, 3 molecules total:
>  <smilesStr>
COc1ccc([C@H]2ON=C(S(=O)(=O)c3ccccc3)[C@@H]2c2cc(OC)c(OC)c(OC)c2)cc1O

>  <Ratio>
2.1

$$$$
>  <smilesStr>
COC1=NO[C@@H](c2ccc(OC)c(O)c2)[C@H]1c1cc(OC)c(OC)c(OC)c1

>  <Ratio>
2.5

$$$$
>  <smilesStr>
COC1=NO[C@H](c2cc(OC)c(OC)c(OC)c2)[C@@H]1c1ccc(OC)c(O)c1

>  <Ratio>
2.6

$$$$

Read the next record carefully.
The value of Ratio measured for the molecule COc1ccc(/C=C\c2cc(OC)c(OC)c(OC)c2)cc1O turned out to be 2.4

From: ChEMBL document CHEMBL1145181
